Source of measurements: patent US4977152A

Measured IC50 (M2-type muscarinic cholinergic receptor (Cavia porcellus, UniProt H0VRN8))
Counter-ions that a name gives are not always drawn.
Answers are plain numbers, in µM.

Below are worked cases with known answers.
Query :: Look up IC50 for this molecule: Cc1cc2ccccc2c2nnc(NCCN3CCOCC3)cc12 [SR 96057 A, dihydrochloride]
Result :: 43

Query :: And `Clc1cc2c(cc1Cl)-c1nnc(NCCN3CCCCC3)cc1CCC2` ?
Result :: 3

Provide the reported IC50 of each entry below, same order.
1. CCN(CC)CCCNc1cc2c(nn1)-c1ccccc1CC2.Cl.Cl [SR 95746 A, dihydrochloride]
2. CCN(CC)CCNc1cc2c(nn1)-c1cc([N+](=O)[O-])ccc1CCC2.Cl.Cl [SR 95777 A, dihydrochloride]

Result ::
1. 25
2. 5.6

Look up IC50 for the entries below, preserving their order.
1. CN1CCC(Nc2cc3c(nn2)-c2ccccc2CCC3)CC1 [SR 96093 A, dihydrochloride]
2. CN(C)CCOc1cc2c(nn1)-c1ccccc1CCC2.Cl [SR 95822 A, hydrochloride]
3. CCN(CC)CCSc1cc2c(nn1)-c1ccccc1CCC2 [SR 95820 A, hydrochloride]
4. CCN(CC)CCNc1cc2c(nn1)-c1ccccc1CC2.Cl.Cl [SR 96054 A, dihydrochloride]

Result ::
[50, 9.5, 2, 7.5]
